testedSystem: human recombinant Yes [a.a. 2–543 (end)] (Homo sapiens, UniProt P07947)
Construct: human recombinant Yes [a.a; 2–543 (end)]; purchased BPS Bioscience 40488
Sequence (P07947 2-543): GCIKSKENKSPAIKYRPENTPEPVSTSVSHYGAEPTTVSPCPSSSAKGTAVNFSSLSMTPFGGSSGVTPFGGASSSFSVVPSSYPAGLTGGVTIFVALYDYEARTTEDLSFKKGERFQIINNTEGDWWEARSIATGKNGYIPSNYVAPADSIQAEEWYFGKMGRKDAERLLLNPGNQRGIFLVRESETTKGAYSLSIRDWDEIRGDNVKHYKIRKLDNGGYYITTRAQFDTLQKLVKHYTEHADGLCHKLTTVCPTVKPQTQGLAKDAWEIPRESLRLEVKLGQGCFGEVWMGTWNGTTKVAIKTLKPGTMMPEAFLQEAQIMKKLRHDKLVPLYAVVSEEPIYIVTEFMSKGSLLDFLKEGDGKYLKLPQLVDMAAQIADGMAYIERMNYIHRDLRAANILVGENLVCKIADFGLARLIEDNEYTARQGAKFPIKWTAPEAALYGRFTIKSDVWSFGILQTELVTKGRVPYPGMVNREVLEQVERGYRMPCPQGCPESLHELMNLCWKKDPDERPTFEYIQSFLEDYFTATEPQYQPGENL
procedureDetails: ADP-Glo kinase assay, inhibition rates of Yes phosphorylation activity (first and second screening)
Assay type: biochemical
conditionNotes: first screening; mean of n = 4 wells; 10 μmol L−1 compound
readoutName: First screening IR (inhibition rate) (%)

Cc1onc(-c2c(F)cccc2Cl)c1C(=O)OCc1nc(-c2cccs2)no1; 20
COc1ccc(Nc2nc(-c3ccc(Cl)s3)cs2)cc1; 4
Cn1nc(C2CCC2)cc1NC(=O)c1cc(Br)cnc1Cl; 0
CCN1CCCN(S(=O)(=O)c2ccccc2S(C)(=O)=O)CC1; 43

a = O=C1NCc2cccc(NS(=O)(=O)c3c(Cl)ccnc3Cl)c21
b = CCN1CCC(NC(=O)C2CCN(S(=O)(=O)c3c(C)c(C)cc(C)c3C)CC2)CC1
Task item: Task for the reader: decide whether a or b has the larger First screening IR (inhibition rate). Reply briefly: the label of your chosen item.
Reply: b

1 = CCN(C1CCS(=O)(=O)C1)S(=O)(=O)c1ccc(C)cc1 (centres unmarked)
2 = COc1ccc(C(=O)N[C@@H]2C(=O)Nc3c(c(C)nn3C)[C@H]2c2cccc(C(F)(F)F)c2)cc1OC
Task item: Task for the reader: decide whether 1 or 2 has the larger First screening IR (inhibition rate). Reply briefly: the label of your chosen item.
Reply: 2
(2: 17%, 1: 9%)
